TESTED_SYSTEM: plasma purified human complement protein C3 (human) (UniProt P01024)
Sequence (P01024 23-667, chain 1 of 2): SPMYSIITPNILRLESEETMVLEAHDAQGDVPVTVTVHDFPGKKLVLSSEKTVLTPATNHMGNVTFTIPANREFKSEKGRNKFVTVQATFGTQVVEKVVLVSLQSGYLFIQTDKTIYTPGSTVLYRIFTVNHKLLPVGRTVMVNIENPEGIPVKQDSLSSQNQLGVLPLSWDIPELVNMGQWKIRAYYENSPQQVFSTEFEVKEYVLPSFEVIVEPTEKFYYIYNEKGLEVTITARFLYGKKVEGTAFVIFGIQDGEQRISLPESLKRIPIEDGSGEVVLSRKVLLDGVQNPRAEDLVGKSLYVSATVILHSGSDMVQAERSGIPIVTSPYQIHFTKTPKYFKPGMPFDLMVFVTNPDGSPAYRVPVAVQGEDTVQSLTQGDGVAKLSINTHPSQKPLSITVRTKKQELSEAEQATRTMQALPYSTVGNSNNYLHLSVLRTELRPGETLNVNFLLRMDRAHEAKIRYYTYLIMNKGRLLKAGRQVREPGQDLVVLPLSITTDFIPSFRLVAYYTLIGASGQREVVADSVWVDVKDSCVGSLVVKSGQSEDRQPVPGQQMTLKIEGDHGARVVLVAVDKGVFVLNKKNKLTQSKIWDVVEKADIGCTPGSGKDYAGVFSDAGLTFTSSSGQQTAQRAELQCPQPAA
Sequence (P01024 672-1663, chain 2 of 2): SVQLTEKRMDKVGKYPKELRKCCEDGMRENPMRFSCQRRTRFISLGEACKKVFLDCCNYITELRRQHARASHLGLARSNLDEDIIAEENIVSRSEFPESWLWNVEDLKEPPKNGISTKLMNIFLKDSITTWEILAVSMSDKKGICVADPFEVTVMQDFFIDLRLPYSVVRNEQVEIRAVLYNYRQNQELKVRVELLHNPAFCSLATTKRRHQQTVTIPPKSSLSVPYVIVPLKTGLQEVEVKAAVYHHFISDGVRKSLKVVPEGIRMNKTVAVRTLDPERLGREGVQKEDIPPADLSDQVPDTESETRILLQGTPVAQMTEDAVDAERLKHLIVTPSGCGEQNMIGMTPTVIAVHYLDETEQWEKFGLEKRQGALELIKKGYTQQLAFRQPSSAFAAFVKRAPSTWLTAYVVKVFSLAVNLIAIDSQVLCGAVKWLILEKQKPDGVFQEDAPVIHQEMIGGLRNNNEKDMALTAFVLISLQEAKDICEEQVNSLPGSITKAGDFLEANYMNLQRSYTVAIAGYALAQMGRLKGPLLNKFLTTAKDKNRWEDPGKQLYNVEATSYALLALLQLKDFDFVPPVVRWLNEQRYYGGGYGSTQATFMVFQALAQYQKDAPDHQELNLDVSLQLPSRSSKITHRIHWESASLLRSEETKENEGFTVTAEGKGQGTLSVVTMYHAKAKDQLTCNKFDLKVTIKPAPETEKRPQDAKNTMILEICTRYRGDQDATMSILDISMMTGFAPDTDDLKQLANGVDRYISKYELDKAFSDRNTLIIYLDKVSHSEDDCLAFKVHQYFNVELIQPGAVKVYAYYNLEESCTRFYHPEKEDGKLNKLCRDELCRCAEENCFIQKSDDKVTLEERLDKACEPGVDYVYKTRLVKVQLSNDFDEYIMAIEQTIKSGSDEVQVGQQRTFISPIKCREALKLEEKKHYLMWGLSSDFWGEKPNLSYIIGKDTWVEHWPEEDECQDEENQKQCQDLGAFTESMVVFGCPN
TEST: cell-based or functional assay
EXPERIMENTAL_ENDPOINT: EC50 hC3 cleavage (nM)
Answers are plain numbers, in nM.

Record excerpt, results attached:
• MTSP-1 protease domain I41S/T98S/F99L/C122S/Q192A (enzyme) VVGGTDADEGEWPWQVSLHALGQGHSCGASLISPNWLVSAAHCYIDDRGFRYSDPTQWTAFLGLHDQSQRSAPGVQERRLKRIISHPFFNDFSLDYDIALLELEKPAEYSSMVRPISLPDASHVFPAGKAIWVTGWGHTQYGGTGALILQKGEIRVINQTTCENLLPQQITPRMMCVGFLSGGVDSCAGDSGGPLSSVEADGRIFQAGVVSWGDGCAQRNKPGVYTRLPLFRDWIKENTGV = 17.4
• MTSP-1 protease domain I41S/F97V/ins97aV/T98P/C122S (enzyme) VVGGTDADEGEWPWQVSLHALGQGHSCGASLISPNWLVSAAHCYIDDRGFRYSDPTQWTAFLGLHDQSQRSAPGVQERRLKRIISHPFFNDVVPFDYDIALLELEKPAEYSSMVRPISLPDASHVFPAGKAIWVTGWGHTQYGGTGALILQKGEIRVINQTTCENLLPQQITPRMMCVGFLSGGVDSCQGDSGGPLSSVEADGRIFQAGVVSWGDGCAQRNKPGVYTRLPLFRDWIKENTGV = 30.9

Next binder, EC50 hC3 cleavage to be filled in.
response.value for MTSP-1 protease domain I41E/F97A/F99M/C122S/G151N/Q175R/Q192S/D217E (enzyme) VVGGTDADEGEWPWQVSLHALGQGHECGASLISPNWLVSAAHCYIDDRGFRYSDPTQWTAFLGLHDQSQRSAPGVQERRLKRIISHPFFNDATMDYDIALLELEKPAEYSSMVRPISLPDASHVFPAGKAIWVTGWGHTQYGGTNALILQKGEIRVINQTTCENLLPQRITPRMMCVGFLSGGVDSCSGDSGGPLSSVEADGRIFQAGVVSWGEGCAQRNKPGVYTRLPLFRDWIKENTGV (field: EC50 hC3 cleavage) = 485
